settings: in NMP, 323.15 K
property_measured: solubility (mole fraction)
The answer should be written as a number, with no unit following it.

# input GET /values?readout=solubility (mole fraction)&item= NC(N)=NC(N)=NCCc1ccccc1
# output 0.0579

* * *

conditions: in NMP, 303.15 K
property_measured: solubility (mole fraction)
The answer should be written as a number, with no unit following it.

# input GET /values?readout=solubility (mole fraction)&item= NC(N)=NC(N)=NCCc1ccccc1
# output 0.028

* * *

details: in n-butanol, 298.15 K
property_measured: solubility (mole fraction)
The answer should be written as a number, with no unit following it.

# input GET /values?readout=solubility (mole fraction)&item= NC(N)=NC(N)=NCCc1ccccc1
# output 0.00142

* * *

conditions: in n-propanol, 278.15 K
property_measured: solubility (mole fraction)

# input GET /values?readout=solubility (mole fraction)&item= NC(N)=NC(N)=NCCc1ccccc1
# output 0.000975

* * *

settings: in 1,4-dioxane, 298.15 K
property_measured: solubility (mole fraction)
The answer should be written as a number, with no unit following it.

# input GET /values?readout=solubility (mole fraction)&item= NC(N)=NC(N)=NCCc1ccccc1
# output 0.000249

* * *

conditions: in DMSO, 308.15 K
property_measured: solubility (mole fraction)
The answer should be written as a number, with no unit following it.

# input GET /values?readout=solubility (mole fraction)&item= NC(N)=NC(N)=NCCc1ccccc1
# output 0.0359

* * *

details: in n-propanol, 293.15 K
property_measured: solubility (mole fraction)
The answer should be written as a number, with no unit following it.

# input GET /values?readout=solubility (mole fraction)&item= NC(N)=NC(N)=NCCc1ccccc1
# output 0.00173

* * *

details: in isopropanol, 283.15 K
property_measured: solubility (mole fraction)
The answer should be written as a number, with no unit following it.

# input GET /values?readout=solubility (mole fraction)&item= NC(N)=NC(N)=NCCc1ccccc1
# output 0.000976

* * *

conditions: in acetonitrile, 298.15 K
property_measured: solubility (mole fraction)
The answer should be written as a number, with no unit following it.

# input GET /values?readout=solubility (mole fraction)&item= NC(N)=NC(N)=NCCc1ccccc1
# output 0.000494

* * *

details: in ethyl acetate, 288.15 K
property_measured: solubility (mole fraction)
The answer should be written as a number, with no unit following it.

# input GET /values?readout=solubility (mole fraction)&item= NC(N)=NC(N)=NCCc1ccccc1
# output 0.0022

* * *

conditions: in water, 298.15 K
property_measured: solubility (mole fraction)
The answer should be written as a number, with no unit following it.

# input GET /values?readout=solubility (mole fraction)&item= NC(N)=NC(N)=NCCc1ccccc1
# output 0.000888

* * *

conditions: in ethylene glycol, 323.15 K
property_measured: solubility (mole fraction)
The answer should be written as a number, with no unit following it.

# input GET /values?readout=solubility (mole fraction)&item= NC(N)=NC(N)=NCCc1ccccc1
# output 0.0128

* * *

conditions: in ethyl acetate, 303.15 K
property_measured: solubility (mole fraction)
The answer should be written as a number, with no unit following it.

# input GET /values?readout=solubility (mole fraction)&item= NC(N)=NC(N)=NCCc1ccccc1
# output 0.00379

* * *

details: in ethylene glycol, 293.15 K
property_measured: solubility (mole fraction)
The answer should be written as a number, with no unit following it.

# input GET /values?readout=solubility (mole fraction)&item= NC(N)=NC(N)=NCCc1ccccc1
# output 0.00481

* * *

settings: in n-propanol, 288.15 K
property_measured: solubility (mole fraction)
The answer should be written as a number, with no unit following it.

# input GET /values?readout=solubility (mole fraction)&item= NC(N)=NC(N)=NCCc1ccccc1
# output 0.00137

* * *

details: in n-propanol, 313.15 K
property_measured: solubility (mole fraction)
The answer should be written as a number, with no unit following it.

# input GET /values?readout=solubility (mole fraction)&item= NC(N)=NC(N)=NCCc1ccccc1
# output 0.00341

* * *

conditions: in ethanol, 288.15 K
property_measured: solubility (mole fraction)
The answer should be written as a number, with no unit following it.

# input GET /values?readout=solubility (mole fraction)&item= NC(N)=NC(N)=NCCc1ccccc1
# output 0.00266

* * *

details: in methanol, 318.15 K
property_measured: solubility (mole fraction)

# input GET /values?readout=solubility (mole fraction)&item= NC(N)=NC(N)=NCCc1ccccc1
# output 0.00823

* * *

details: in methanol, 278.15 K
property_measured: solubility (mole fraction)
The answer should be written as a number, with no unit following it.

# input GET /values?readout=solubility (mole fraction)&item= NC(N)=NC(N)=NCCc1ccccc1
# output 0.00237

* * *

details: in methanol, 293.15 K
property_measured: solubility (mole fraction)

# input GET /values?readout=solubility (mole fraction)&item= NC(N)=NC(N)=NCCc1ccccc1
# output 0.00385

* * *

details: in water, 323.15 K
property_measured: solubility (mole fraction)
The answer should be written as a number, with no unit following it.

# input GET /values?readout=solubility (mole fraction)&item= NC(N)=NC(N)=NCCc1ccccc1
# output 0.00206

* * *

conditions: in n-butanol, 278.15 K
property_measured: solubility (mole fraction)

# input GET /values?readout=solubility (mole fraction)&item= NC(N)=NC(N)=NCCc1ccccc1
# output 0.000627

* * *

settings: in NMP, 288.15 K
property_measured: solubility (mole fraction)

# input GET /values?readout=solubility (mole fraction)&item= NC(N)=NC(N)=NCCc1ccccc1
# output 0.017

* * *

details: in water, 318.15 K
property_measured: solubility (mole fraction)
The answer should be written as a number, with no unit following it.

# input GET /values?readout=solubility (mole fraction)&item= NC(N)=NC(N)=NCCc1ccccc1
# output 0.00175

* * *

conditions: in n-propanol, 283.15 K
property_measured: solubility (mole fraction)
The answer should be written as a number, with no unit following it.

# input GET /values?readout=solubility (mole fraction)&item= NC(N)=NC(N)=NCCc1ccccc1
# output 0.00116

* * *

settings: in ethyl acetate, 278.15 K
property_measured: solubility (mole fraction)
The answer should be written as a number, with no unit following it.

# input GET /values?readout=solubility (mole fraction)&item= NC(N)=NC(N)=NCCc1ccccc1
# output 0.00157

* * *

settings: in ethanol, 318.15 K
property_measured: solubility (mole fraction)
The answer should be written as a number, with no unit following it.

# input GET /values?readout=solubility (mole fraction)&item= NC(N)=NC(N)=NCCc1ccccc1
# output 0.00723

* * *

settings: in n-propanol, 298.15 K
property_measured: solubility (mole fraction)

# input GET /values?readout=solubility (mole fraction)&item= NC(N)=NC(N)=NCCc1ccccc1
# output 0.00208

* * *

conditions: in n-propanol, 318.15 K
property_measured: solubility (mole fraction)
The answer should be written as a number, with no unit following it.

# input GET /values?readout=solubility (mole fraction)&item= NC(N)=NC(N)=NCCc1ccccc1
# output 0.00396

* * *

conditions: in DMF, 313.15 K
property_measured: solubility (mole fraction)
The answer should be written as a number, with no unit following it.

# input GET /values?readout=solubility (mole fraction)&item= NC(N)=NC(N)=NCCc1ccccc1
# output 0.0491

* * *

conditions: in acetonitrile, 313.15 K
property_measured: solubility (mole fraction)
The answer should be written as a number, with no unit following it.

# input GET /values?readout=solubility (mole fraction)&item= NC(N)=NC(N)=NCCc1ccccc1
# output 0.00084

* * *

conditions: in NMP, 313.15 K
property_measured: solubility (mole fraction)
The answer should be written as a number, with no unit following it.

# input GET /values?readout=solubility (mole fraction)&item= NC(N)=NC(N)=NCCc1ccccc1
# output 0.0409

* * *

conditions: in DMSO, 293.15 K
property_measured: solubility (mole fraction)

# input GET /values?readout=solubility (mole fraction)&item= NC(N)=NC(N)=NCCc1ccccc1
# output 0.0217

* * *

details: in water, 308.15 K
property_measured: solubility (mole fraction)
The answer should be written as a number, with no unit following it.

# input GET /values?readout=solubility (mole fraction)&item= NC(N)=NC(N)=NCCc1ccccc1
# output 0.00126

* * *

conditions: in isobutanol, 308.15 K
property_measured: solubility (mole fraction)
The answer should be written as a number, with no unit following it.

# input GET /values?readout=solubility (mole fraction)&item= NC(N)=NC(N)=NCCc1ccccc1
# output 0.00167

* * *

details: in isopropanol, 308.15 K
property_measured: solubility (mole fraction)
The answer should be written as a number, with no unit following it.

# input GET /values?readout=solubility (mole fraction)&item= NC(N)=NC(N)=NCCc1ccccc1
# output 0.00247
